experimentalDetails: inhibition of PEG-3 promoter activity – cell-based, HeLa, luciferase luminescence, primary screen (AID 588405)
reportedConditions: HeLa PEG-Prom luciferase reporter, overnight, at 20 µM, active compounds read high
About 6,200 (1.7%) of roughly 360,000 compounds were called active. The full list was thinned out, with actives kept by preference.
measurementType: inhibition (%)
Answer format: numeric, % implied, no suffix.

Enquiry: Which inhibition is reported for this compound? `CN(O)C(=S)c1ccccc1`
Return: 92.1

Enquiry: # query: inhibition of entry COc1ccc(C2CC(c3ccccc3)=NN2C(=O)c2ccc(Cl)c([N+](=O)[O-])c2)cc1 (stereo unspecified)
Return: 72.4

Enquiry: Quick check: inhibition of `CC(=O)Nc1ccc(NC(=O)COC(=O)c2ccccc2C(=O)c2ccccc2)cc1` ?
Return: -1.14

Enquiry: Would you mind telling me what inhibition value was observed for `COC(=O)c1cc(NC(=O)Cc2ccccc2[N+](=O)[O-])ccc1Cl` ?
Return: -2.09

Enquiry: Could you tell me which inhibition is on file for `Cc1ccc(S(=O)(=O)NCC(=O)NNC(=O)c2ccc(Br)cc2)cc1C` ?
Return: 4.68

Enquiry: What value of inhibition has been reported for the following compound? `CCc1nc2c(OCc3ccc(Cl)cc3Cl)cccn2c1N(C)C(=O)C(C)C`
Return: 14.2

Enquiry: Requested read-out: inhibition. Entry: `Cc1sc2ccccc2c1CNC[C@H]1O[C@@H](n2ccc(=O)[nH]c2=O)[C@H](O)[C@@H]1O`
Return: -4.81

Enquiry: Field request: inhibition | item: CC(OC(=O)CNC(=O)c1ccc(Cl)c([N+](=O)[O-])c1)C(=O)NCc1ccco1 (stereo unspecified)
Return: 3.12

Enquiry: Item under review: CC(C)CCN1CCN(Cc2cn[nH]c2C2CCCCC2)CC1CCO (stereo unspecified) . Reported inhibition?
Return: 8.83

Enquiry: Which value of inhibition has been reported for CCCS(=O)(=O)NC(=O)C1(C)CCCN(C(=O)c2ccnc(Cl)c2)C1 (stereo unspecified) in the records?
Return: -1.18

Enquiry: Dear colleague, I am looking for the recorded inhibition of the following compound: `Cc1nccn1-c1ccc(NC(=O)[C@H]2O[C@@H](n3cnc4c(N)ncnc43)[C@H](O)[C@@H]2O)cc1`
Return: 7.92

Enquiry: Which inhibition value is on record for `O=C(Nc1cccc2ccccc12)c1[nH]c(-c2ccccc2)c2c1C(=O)N(C1CC1)C2=O` ?
Return: 52.8

Enquiry: Data request, read-out inhibition, for `O=C(Nc1cccc2ccccc12)NC1CC1`
Return: 6.64

Enquiry: Find the recorded inhibition belonging to `CNC(=O)c1cccc2nc3ccccc3nc12` and report it.
Return: 6.22

Enquiry: Entry `C[C@@H]1CN([C@@H](C)CO)C(=O)CCCn2cc(nn2)CO[C@H]1CN(C)S(=O)(=O)c1ccc(-n2cccn2)cc1` : reported inhibition = ?
Return: -0.13

Enquiry: Which measured inhibition value corresponds to `CN(Cc1ccccc1)C(=O)c1cccc(C(=O)N(C)Cc2ccccc2)c1` ?
Return: 8.74

Enquiry: Using the record for `CC(=O)Nc1cc(-c2cccc(CO)c2)cn2c(-c3cccc(C(F)(F)F)c3)cnc12` , report its inhibition.
Return: 19.9

Enquiry: Quick one: inhibition for `O=C(Nc1cccc(NC(=O)c2ccccc2[N+](=O)[O-])c1)c1ccccc1Cl` ?
Return: -9.06

Enquiry: State the recorded inhibition for this entry: COc1cccc(C(O)c2ncc(-c3ccc4ccccc4c3)[nH]2)c1 (stereo unspecified)
Return: -68.4

Enquiry: inhibition for CCCc1ccc(C(O)c2ncc(-c3cccc(OC)c3)[nH]2)cc1 (stereo unspecified) ?
Return: -5.53

Enquiry: // returns reported inhibition for input `CSc1ccccc1NC(=O)COC(=O)CCCOc1ccc(C)cc1`
Return: 8.63
